Numbers sourced from ChEMBL document CHEMBL3046745.

Test system: Podosphaera fuliginea
Test: Resistant ratio, ratio of EC50 for Podosphaera fuliginea isolate N-1 to EC50 for Podosphaera fuliginea isolate K-7
Assay type: functional
TEST READOUT: Ratio EC50

{"MOLECULE": "COC(=O)NC(=S)Nc1ccccc1NC(=S)NC(=O)OC [THIOPHANATE METHYL]", "Ratio EC50": 25092.3}
{"MOLECULE": "CCCCc1c(C)nc(N(C)C)nc1O [DIMETHIRIMOL]", "Ratio EC50": 223.7}
{"MOLECULE": "Cc1ccc2nc3sc(=O)sc3nc2c1 [CHINOMETHIONAT]", "Ratio EC50": 3.8}

Please turn your attention to the following entry.
-- ask Name the recorded Ratio EC50 for CC(C)(C)C(=O)C(Oc1ccc(Cl)cc1)n1cncn1 (centres undefined) [TRIADIMEFON] .
-- reply 94.4
